- Assay remarks: self-splicing fitness, log relative to wild type (ln ratio); higher = more splicing; Tetrahymena group I intron in knt gene, E. coli kanamycin selection, DiMSum; sequences stand for … in CUCUCU…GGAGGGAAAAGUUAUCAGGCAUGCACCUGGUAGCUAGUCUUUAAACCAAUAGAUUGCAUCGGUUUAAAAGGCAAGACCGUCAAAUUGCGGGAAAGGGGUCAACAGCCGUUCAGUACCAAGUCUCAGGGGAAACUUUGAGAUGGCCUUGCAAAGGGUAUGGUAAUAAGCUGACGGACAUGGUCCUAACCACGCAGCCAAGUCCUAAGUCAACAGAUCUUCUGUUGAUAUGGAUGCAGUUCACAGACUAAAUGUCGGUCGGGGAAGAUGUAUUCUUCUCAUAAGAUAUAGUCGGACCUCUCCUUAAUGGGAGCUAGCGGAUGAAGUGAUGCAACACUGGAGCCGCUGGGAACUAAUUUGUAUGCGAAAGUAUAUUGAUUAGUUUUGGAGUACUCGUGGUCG;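 also: selection with 25 µg/mL kanamycin versus none on LB agar overnight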
- Assay conditions: 30 °C
// self-splicing fitness (ln) lookup, one value per entry
Kindly provide the number alone.

Example entries and their recorded answers appear below.
{"Chain sequence": "GACCAGCAAUAUUACGACCU", "Assay result": 0.00245}
{"Chain sequence": "AGAAAGCAAUAUUACGGGGA", "Assay result": -3.05}
{"Chain sequence": "GCACAGCAAUAUUACGGCUG", "Assay result": -3.49}

Just so you know, measured self-splicing fitness (ln) for CUGGAGCAAUAUUACGCAAA came out at -3.87

Just so you know, measured self-splicing fitness (ln) for UCGUAGCAAUAUUACGCGAG came out at -4.07

Just so you know, measured self-splicing fitness (ln) for GUCAAGCAAUAUUACGCUUA came out at -2.07

Just so you know, measured self-splicing fitness (ln) for GGCUAGCAAUAUUACGCGCA came out at 0.157

Just so you know, measured self-splicing fitness (ln) for UAUUAGCAAUAUUACGUGGU came out at -2.57

====

- Assay remarks: self-splicing fitness, log relative to wild type (ln ratio); higher = more splicing; Tetrahymena group I intron in knt gene, E. coli kanamycin selection, DiMSum; sequences stand for … in CUCUCU…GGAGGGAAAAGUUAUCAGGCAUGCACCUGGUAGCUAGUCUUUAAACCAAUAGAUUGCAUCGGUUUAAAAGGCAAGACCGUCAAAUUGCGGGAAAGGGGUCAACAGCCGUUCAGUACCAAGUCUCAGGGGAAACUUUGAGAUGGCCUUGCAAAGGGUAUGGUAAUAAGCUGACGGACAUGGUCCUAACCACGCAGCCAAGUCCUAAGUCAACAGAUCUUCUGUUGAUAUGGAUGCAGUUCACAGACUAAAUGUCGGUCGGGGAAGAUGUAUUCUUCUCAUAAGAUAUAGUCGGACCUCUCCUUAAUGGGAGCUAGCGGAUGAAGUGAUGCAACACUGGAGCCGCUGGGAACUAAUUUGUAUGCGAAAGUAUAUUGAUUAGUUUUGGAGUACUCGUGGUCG
- Assay conditions: 30 °C
// self-splicing fitness (ln) lookup, one value per entry
Kindly provide the number alone.

Example entries and their recorded answers appear below.
{"Chain sequence": "UUCAAGCAAUAUUACGAUCA", "Outcome measure": "self-splicing fitness (ln)", "Assay result": -0.845}
{"Chain sequence": "CUCGAGCAAUAUUACGCAUG", "Outcome measure": "self-splicing fitness (ln)", "Assay result": -3.27}
{"Chain sequence": "CAGCAGCAAUAUUACGACAG", "Outcome measure": "self-splicing fitness (ln)", "Assay result": -0.416}
{"Chain sequence": "GAAUAGCAAUAUUACGAUUA", "Outcome measure": "self-splicing fitness (ln)", "Assay result": -0.73}

Attention now turns to another entry.
Just so you know, measured self-splicing fitness (ln) for GCUCAGCAAUAUUACGGUAA came out at -1.52

Where do these numbers come from? They come from the supplement of paper PMC7877785.
